Experiment: PK in dog
Settings: in vivo, 0.5 mg/kg i.v. and p.o.
property: Cmax (ng/mL)
Supply the numeric figure in ng/mL, leaving out any unit text.

QUERY: Looking for the measured Cmax of COc1cc2nccc(Oc3ccc(NC(=O)c4cn(C(C)C)c(=O)n(-c5ccc(F)cc5)c4=O)cc3F)c2cc1OC [CEP-40783] , can you help?
RESULT: 1170

====

Assay: PK in dog
Details: in vivo, intravenous, 0.5 mg/kg i.v. and p.o.
property: Vd (L/kg)
Numeric only. Scale: L/kg

QUERY: Any idea what Vd was measured for COc1cc2nccc(Oc3ccc(NC(=O)c4cn(C(C)C)c(=O)n(-c5ccc(F)cc5)c4=O)cc3F)c2cc1OC [CEP-40783] ?
RESULT: 1.3
